Data origin, for the record: patent US20230002359A1

Measured Quantity: melting point

Query :: Would you mind telling me what melting point value was observed for C[C@@H](c1ncnn1-c1ncccn1)N(C)c1c(C#N)cnc2c(C(F)(F)F)cc(C(F)(F)F)cc12 ?
Result :: 84 to 86 °C

Query :: Can you check CC(Nc1ncnc2c(Cl)c(F)c(Cl)cc12)c1ncnn1-c1ccc(C#N)cn1 (stereo not drawn) next?
Result :: 215 to 225 °C

Query :: Same lookup for CC(Nc1ncnc2c(C(F)(F)F)cc(Br)cc12)c1ncnn1-c1ccc(Br)cn1 (stereo not drawn) , please.
Result :: 214 to 216 °C

Query :: # iterate: CC(Nc1c(C#N)cnc2c(C(F)(F)F)cc(C(F)(F)F)cc12)c1ncnn1-c1ccc(C#N)cn1 (stereo not drawn)
Result :: 261 to 263 °C

Query :: Then what about the compound CC(c1nccnc1-c1ccc(C#N)cn1)N(CC1CC1)c1ncnc2c(C(F)(F)F)cc(Br)cc12 (stereo not drawn) ?
Result :: 251 to 253 °C

Query :: Now the compound C[C@@H](c1ncnn1-c1ccc(-c2ncon2)cn1)N(C)c1ncnc2c(C(F)(F)F)cc(Cl)cc12
Result :: 144 to 146 °C

Query :: Further, for CC(Nc1ncnc2c(Br)cc(C(F)(F)F)cc12)c1ncnn1-c1ccc(Br)cn1 (stereo not drawn) ?
Result :: 280 to 282 °C

Query :: Try C[C@@H](c1ncnn1-c1ccc(-c2nccs2)cn1)N(C)c1ncnc2c(C(F)(F)F)cc(Cl)cc12 next.
Result :: 142 to 144 °C

Query :: Also, CC(Nc1ncnc2c(Cl)cc(C(F)(F)F)cc12)c1ncnn1-c1ccc(OC(F)F)cn1 (stereo not drawn) please.
Result :: 240 to 242 °C
